- TESTED TARGET: Epidermal growth factor receptor (Homo sapiens)
- Sequence (P00533 whole entry, the tested form may be a part): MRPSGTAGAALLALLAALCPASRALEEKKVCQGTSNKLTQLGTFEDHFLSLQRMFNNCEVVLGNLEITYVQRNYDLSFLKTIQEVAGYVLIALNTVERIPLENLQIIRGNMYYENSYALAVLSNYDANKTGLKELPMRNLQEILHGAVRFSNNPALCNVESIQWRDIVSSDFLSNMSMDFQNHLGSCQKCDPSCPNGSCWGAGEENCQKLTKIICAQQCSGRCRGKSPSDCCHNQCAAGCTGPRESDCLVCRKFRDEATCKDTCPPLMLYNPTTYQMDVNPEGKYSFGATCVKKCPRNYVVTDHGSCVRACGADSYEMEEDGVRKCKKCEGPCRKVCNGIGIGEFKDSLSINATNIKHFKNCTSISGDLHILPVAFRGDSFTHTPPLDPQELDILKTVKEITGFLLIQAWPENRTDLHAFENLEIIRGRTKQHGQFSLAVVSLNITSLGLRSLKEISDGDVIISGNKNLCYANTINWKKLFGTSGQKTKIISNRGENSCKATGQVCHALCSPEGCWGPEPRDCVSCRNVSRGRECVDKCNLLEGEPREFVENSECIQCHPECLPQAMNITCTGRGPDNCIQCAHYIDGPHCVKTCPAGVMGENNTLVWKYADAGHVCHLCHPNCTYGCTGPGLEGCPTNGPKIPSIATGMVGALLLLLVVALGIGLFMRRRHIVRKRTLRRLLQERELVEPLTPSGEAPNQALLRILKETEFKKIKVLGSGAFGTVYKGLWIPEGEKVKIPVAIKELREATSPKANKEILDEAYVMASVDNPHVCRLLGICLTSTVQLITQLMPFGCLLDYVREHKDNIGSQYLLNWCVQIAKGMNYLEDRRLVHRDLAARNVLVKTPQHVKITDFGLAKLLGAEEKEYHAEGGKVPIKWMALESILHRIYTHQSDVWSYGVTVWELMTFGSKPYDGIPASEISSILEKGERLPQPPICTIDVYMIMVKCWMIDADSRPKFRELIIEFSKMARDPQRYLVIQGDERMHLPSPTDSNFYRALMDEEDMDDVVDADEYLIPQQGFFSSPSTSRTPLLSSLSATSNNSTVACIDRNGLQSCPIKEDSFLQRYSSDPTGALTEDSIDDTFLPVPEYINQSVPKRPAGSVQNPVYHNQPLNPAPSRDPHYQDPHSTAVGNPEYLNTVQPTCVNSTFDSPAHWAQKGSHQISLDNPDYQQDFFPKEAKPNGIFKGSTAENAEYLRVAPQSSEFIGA
- ASSAY PROCEDURE: Inhibition of human recombinant GST-tagged EGFR (catalytic domain 695 to end) expressed in baculovirus-infected Sf9 cells assessed as reduction in phosphorylation of polyglutamic acid/tyrosine incubated for 60 mins by ADP-Glo assay
ENDPOINT NAME: IC50 (nM)
Write the number in nM without appending the unit.

Request: Report IC50 for C=CC(=O)Nc1ccc(Nc2ncnc3cc(OC)c(OCCN4CCOCC4)cc23)cc1 please.
Response: 105

* * *

- System: Plasmodium falciparum
- ASSAY PROCEDURE: Antimalarial activity against Plasmodium falciparum 3D7 infected in human erythrocytes after 72 hrs by SYBR Green1 dye based fluorescence assay relative to control
- Format: functional, organism-based
- APPLIED CONDITIONS: 3D7, 72 h
ENDPOINT NAME: EC50 (nM)
Write the number in nM without appending the unit.

Request: Report EC50 for C[C@H]1[C@H](OC(=O)CCC(=O)Nc2ccc3ncnc(Nc4ccc(Cl)c(Cl)c4)c3c2)O[C@@H]2O[C@@]3(C)CC[C@H]4[C@H](C)CC[C@@H]1[C@@]24OO3 please.
Response: 1.4

Source listed as ChEMBL document CHEMBL4342409.
